target: BACE1 (Homo sapiens, UniProt P56817); construct: endogenous in cells; experiment: BACE inhibitor whole cell IC50 determination using HEK293-APPswe/lon cells (Aβ40); conditions: 4 hours, Aβ40 in media, read-out: BACE1 A[…]40 IC50
Sequence (P56817 46-501): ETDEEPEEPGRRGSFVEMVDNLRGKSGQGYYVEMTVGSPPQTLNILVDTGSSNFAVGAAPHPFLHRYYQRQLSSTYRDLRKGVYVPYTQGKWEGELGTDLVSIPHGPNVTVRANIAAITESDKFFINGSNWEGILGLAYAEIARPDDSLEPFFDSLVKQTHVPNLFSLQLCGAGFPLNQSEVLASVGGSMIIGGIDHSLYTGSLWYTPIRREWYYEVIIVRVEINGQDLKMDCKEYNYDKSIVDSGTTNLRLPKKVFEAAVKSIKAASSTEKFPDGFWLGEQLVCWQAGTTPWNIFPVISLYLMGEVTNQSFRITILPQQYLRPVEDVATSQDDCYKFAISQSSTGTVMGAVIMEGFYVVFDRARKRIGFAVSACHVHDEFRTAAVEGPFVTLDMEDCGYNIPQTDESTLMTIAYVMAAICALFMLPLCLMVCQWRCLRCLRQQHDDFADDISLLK
pIC50: −log10 of the molar value.
readout: pIC50

CCc1nc(N2C[C@H]3C(=O)N(C)C(=N)N[C@@]3(c3ccc(Cl)s3)C2)nc(C)c1F [Example 7] | 6.55
CCCc1nc(N2C[C@H]3C(=O)N(C)C(=N)N[C@@]3(c3ccc(C#N)s3)C2)nc(C)c1F [Example 16] | 6.87
Cc1nc(N2C[C@H]3C(=O)N(C)C(=N)N[C@@]3(c3ccc(Cl)s3)C2)nc(C2CC2)c1Cl [Example 20] | 6.67

P: COc1nc(N2C[C@H]3C(=O)N(C)C(=N)N[C@@]3(c3ccc(Cl)s3)C2)nc(C2CC2)c1Cl [Example 12]
Q: Cc1nc(N2C[C@H]3C(=O)N(C)C(=N)N[C@@]3(c3ccc(C#N)s3)C2)nc(C)c1F [Example 19]
Problem: Between the entries labelled P and Q , which has a larger pIC50 value on record? Respond with the label that goes with your answer.
Solution: Q
(Q: 6.85, P: 6.25)

----------
target: CYP2C9 (Homo sapiens, UniProt P11712); construct: human liver microsomes (0.4 mg/ml); from tissue; host or cells: human liver microsomes; test: CYP inhibition assay, human liver microsomes, CYP2C9; type: in vitro ADME; settings: 30 min pre-incubation with NADPH, read-out: CYP 2C9 IC50 pre
Sequence (P11712 whole entry): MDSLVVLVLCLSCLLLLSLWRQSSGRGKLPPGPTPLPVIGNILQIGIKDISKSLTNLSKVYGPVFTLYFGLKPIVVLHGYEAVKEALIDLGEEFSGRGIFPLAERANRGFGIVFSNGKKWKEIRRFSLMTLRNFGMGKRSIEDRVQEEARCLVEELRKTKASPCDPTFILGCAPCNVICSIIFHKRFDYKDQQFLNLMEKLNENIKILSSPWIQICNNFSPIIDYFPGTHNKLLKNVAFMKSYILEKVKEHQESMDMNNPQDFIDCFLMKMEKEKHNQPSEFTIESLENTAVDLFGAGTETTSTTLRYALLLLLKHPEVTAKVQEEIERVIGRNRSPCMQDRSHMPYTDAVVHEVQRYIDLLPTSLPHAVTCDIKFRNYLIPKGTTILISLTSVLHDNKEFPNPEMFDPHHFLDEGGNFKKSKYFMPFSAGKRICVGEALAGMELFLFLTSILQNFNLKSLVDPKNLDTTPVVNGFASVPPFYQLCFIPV
readout: IC50 (µM)

Cc1nc(N2C[C@H]3C(=O)N(C)C(=N)N[C@@]3(c3ccc(Cl)s3)C2)nc(C2CC2)c1F | 19

1: COc1nc(N2C[C@H]3C(=O)N(C)C(=N)N[C@@]3(c3ccc(Cl)s3)C2)nc(C)c1F
2: CCCc1nc(N2C[C@H]3C(=O)N(C)C(=N)N[C@@]3(c3ccc(Cl)s3)C2)nc(OC)c1F
Problem: Hello, I am sorting some records. Could you say if 1 or 2 has the smaller IC50 value? Respond with the label that goes with your answer.
Solution: 2
(2: 11.3 µM, 1: 22.8 µM)

----------
Listed here are molecules together with their documented inhibition at 30 min, 5 uG/mL.
target: hERG (Homo sapiens, UniProt Q12809); construct: expressed in transfected cells; host or cells: CHO cells (hERG-CHO); assay: hERG rubidium efflux in hERG-CHO cells; type: cell-based; details: CHO cells that express hERG (hERG-CHO), pH 7.4, 5 uG/mL, read-out: HERG Rb efflux % Inhib 5 uG/mL
Sequence (Q12809 whole entry): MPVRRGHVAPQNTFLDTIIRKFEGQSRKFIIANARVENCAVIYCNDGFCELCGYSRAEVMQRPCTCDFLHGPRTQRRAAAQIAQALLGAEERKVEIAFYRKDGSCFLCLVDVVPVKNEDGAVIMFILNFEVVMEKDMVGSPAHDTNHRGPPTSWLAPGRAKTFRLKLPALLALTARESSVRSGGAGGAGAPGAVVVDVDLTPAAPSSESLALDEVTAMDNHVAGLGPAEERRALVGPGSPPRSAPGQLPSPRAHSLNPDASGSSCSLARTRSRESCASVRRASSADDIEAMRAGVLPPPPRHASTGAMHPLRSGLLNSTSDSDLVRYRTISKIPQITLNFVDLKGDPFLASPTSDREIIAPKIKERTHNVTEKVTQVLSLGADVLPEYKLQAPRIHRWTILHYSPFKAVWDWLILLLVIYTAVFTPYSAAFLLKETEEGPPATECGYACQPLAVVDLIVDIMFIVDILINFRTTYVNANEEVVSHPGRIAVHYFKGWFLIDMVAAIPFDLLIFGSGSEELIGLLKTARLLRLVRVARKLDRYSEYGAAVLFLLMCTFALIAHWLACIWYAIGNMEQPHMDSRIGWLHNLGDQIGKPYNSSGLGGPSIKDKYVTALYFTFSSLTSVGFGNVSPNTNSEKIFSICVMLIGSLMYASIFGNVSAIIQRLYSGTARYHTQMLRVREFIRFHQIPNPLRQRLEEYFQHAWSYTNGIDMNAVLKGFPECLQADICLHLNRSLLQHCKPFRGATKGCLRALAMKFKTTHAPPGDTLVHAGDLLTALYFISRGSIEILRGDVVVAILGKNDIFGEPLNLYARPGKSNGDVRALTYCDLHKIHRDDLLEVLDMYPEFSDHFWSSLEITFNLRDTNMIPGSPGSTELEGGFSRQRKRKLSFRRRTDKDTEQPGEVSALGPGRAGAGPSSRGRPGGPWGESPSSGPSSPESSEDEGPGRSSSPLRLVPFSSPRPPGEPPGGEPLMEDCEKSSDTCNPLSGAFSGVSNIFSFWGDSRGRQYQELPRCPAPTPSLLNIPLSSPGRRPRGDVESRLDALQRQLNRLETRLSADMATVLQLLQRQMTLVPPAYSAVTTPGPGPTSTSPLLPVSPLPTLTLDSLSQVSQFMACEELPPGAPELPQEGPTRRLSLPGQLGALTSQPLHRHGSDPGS
Enter your answer as a number in %; do not include the unit.

Use the examples below as a reference point.
Cc1nc(N2C[C@H]3C(=O)N(C)C(=N)N[C@@]3(c3ccc(Cl)s3)C2)nc(C2CC2)c1Cl | 34
CCc1nc(N2C[C@H]3C(=O)N(C)C(=N)N[C@@]3(c3ccc(Cl)s3)C2)nc(C2CC2)c1Cl | 46
COc1nc(N2C[C@H]3C(=O)N(C)C(=N)N[C@@]3(c3ccc(Cl)s3)C2)nc(C)c1F | 22
CCc1nc(N2C[C@H]3C(=O)N(C)C(=N)N[C@@]3(c3ccc(Cl)s3)C2)nc(OC)c1F | 49

Problem: Bench note: what inhibition at 30 min, 5 uG/mL did `COc1nc(N2C[C@H]3C(=O)N(C)C(=N)N[C@@]3(c3ccc(Cl)s3)C2)nc(C2CC2)c1F` show?
Solution: 72

Problem: Bench note: what inhibition at 30 min, 5 uG/mL did `CCOc1nc(N2C[C@H]3C(=O)N(C)C(=N)N[C@@]3(c3ccc(Cl)s3)C2)nc(CC)c1F` show?
Solution: 22

Problem: Bench note: what inhibition at 30 min, 5 uG/mL did `CCCc1nc(N2C[C@H]3C(=O)N(C)C(=N)N[C@@]3(c3ccc(C#N)s3)C2)nc(C)c1F` show?
Solution: 28

Problem: Bench note: what inhibition at 30 min, 5 uG/mL did `CCCc1nc(N2C[C@H]3C(=O)N(C)C(=N)N[C@@]3(c3ccc(Cl)s3)C2)nc(C)c1F` show?
Solution: 40

Problem: Bench note: what inhibition at 30 min, 5 uG/mL did `COc1nc(N2C[C@H]3C(=O)N(C)C(=N)N[C@@]3(c3ccc(Cl)s3)C2)nc(C2CC2)c1Cl` show?
Solution: 34

----------
pKi: −log10 of the molar value.
The following molecules each carry a recorded pKi for soluble human BACE1 catalytic domain (Homo sapiens).
readout: pKi

COc1nc(N2C[C@H]3C(=O)N(C)C(=N)N[C@@]3(c3ccc(Cl)s3)C2)nc(C2CC2)c1Cl | 7.52

I: COc1nc(N2C[C@H]3C(=O)N(C)C(=N)N[C@@]3(c3ccc(Cl)s3)C2)nc(C2CC2)c1F
II: CCCc1nc(N2C[C@H]3C(=O)N(C)C(=N)N[C@@]3(c3ccc(C#N)s3)C2)nc(C)c1F
Problem: Hello, I am sorting some records. Could you say if I or II has the smaller pKi value? Respond with the label that goes with your answer.
Solution: I
(I: 6.82, II: 7.72)

----------
target: CYP2D6 (Homo sapiens, UniProt P10635); construct: human liver microsomes (0.4 mg/ml); from tissue; host or cells: human liver microsomes; assay: CYP inhibition assay, human liver microsomes, CYP2D6; type: in vitro ADME; settings: 30 min pre-incubation with NADPH, read-out: CYP 2D6 IC50 pre
Sequence (P10635 whole entry): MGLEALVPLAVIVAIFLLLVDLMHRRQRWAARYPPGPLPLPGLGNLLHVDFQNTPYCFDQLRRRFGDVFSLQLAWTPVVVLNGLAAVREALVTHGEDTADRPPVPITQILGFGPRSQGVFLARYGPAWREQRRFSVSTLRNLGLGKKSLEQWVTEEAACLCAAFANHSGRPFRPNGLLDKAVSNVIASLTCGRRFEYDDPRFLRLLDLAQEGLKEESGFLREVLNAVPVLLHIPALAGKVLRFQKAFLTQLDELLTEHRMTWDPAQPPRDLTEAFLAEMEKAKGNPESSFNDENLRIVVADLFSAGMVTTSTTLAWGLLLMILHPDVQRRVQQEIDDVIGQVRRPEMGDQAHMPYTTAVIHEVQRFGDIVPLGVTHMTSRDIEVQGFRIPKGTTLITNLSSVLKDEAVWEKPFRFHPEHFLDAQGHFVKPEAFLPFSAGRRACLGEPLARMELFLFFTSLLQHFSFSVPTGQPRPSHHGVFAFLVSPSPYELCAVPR
readout: IC50 (µM)

CCc1nc(N2C[C@H]3C(=O)N(C)C(=N)N[C@@]3(c3ccc(Cl)s3)C2)nc(OC)c1F | 19

A: CCCc1nc(N2C[C@H]3C(=O)N(C)C(=N)N[C@@]3(c3ccc(Cl)s3)C2)nc(OC)c1F
B: CCOc1nc(N2C[C@H]3C(=O)N(C)C(=N)N[C@@]3(c3ccc(Cl)s3)C2)nc(CC)c1F
C: Cc1nc(N2C[C@H]3C(=O)N(C)C(=N)N[C@@]3(c3ccc(Cl)s3)C2)nc(C2CC2)c1F
Problem: // ranking: key=IC50, reverse=True Would you mind listing the labels in the order requested?
Solution: C, B, A
(C: 21 µM, B: 12.9 µM, A: 8.2 µM)

----------
target: soluble human BACE1 catalytic domain (Homo sapiens, UniProt P56817)
Sequence (P56817 75-416 limits assumed): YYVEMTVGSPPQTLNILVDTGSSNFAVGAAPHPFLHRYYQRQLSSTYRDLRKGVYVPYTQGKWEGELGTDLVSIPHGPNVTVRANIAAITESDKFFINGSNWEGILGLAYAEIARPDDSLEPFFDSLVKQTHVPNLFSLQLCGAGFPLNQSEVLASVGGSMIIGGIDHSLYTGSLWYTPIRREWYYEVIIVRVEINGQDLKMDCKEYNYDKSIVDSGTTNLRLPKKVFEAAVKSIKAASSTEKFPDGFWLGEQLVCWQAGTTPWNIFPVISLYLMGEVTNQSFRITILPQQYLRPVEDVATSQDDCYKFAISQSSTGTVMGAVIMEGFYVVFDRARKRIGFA
pKi: −log10 of the molar value.
readout: pKi

Use the examples below as a reference point.
Cc1nc(N2C[C@H]3C(=O)N(C)C(=N)N[C@@]3(c3ccc(Cl)s3)C2)nc(C2CC2)c1F | 7.31
CCCc1nc(N2C[C@H]3C(=O)N(C)C(=N)N[C@@]3(c3ccc(Cl)s3)C2)nc(C)c1F | 8.06

I: Cc1nc(N2C[C@H]3C(=O)N(C)C(=N)N[C@@]3(c3ccc(C#N)s3)C2)nc(C2CC2)c1F
II: CCOc1nc(N2C[C@H]3C(=O)N(C)C(=N)N[C@@]3(c3ccc(Cl)s3)C2)nc(CC)c1F
Problem: Between the entries labelled I and II , which has a larger pKi value on record? Respond with the label that goes with your answer.
Solution: I
(I: 7.31, II: 6.96)

----------
biological target: CYP3A4 (Homo sapiens); construct: human liver microsomes (0.4 mg/ml); from tissue; host or cells: human liver microsomes; assay: CYP inhibition assay, human liver microsomes, CYP3A4; format: in vitro ADME; conditions: 30 min pre-incubation with NADPH, read-out: CYP 3A4 IC50 pre
Sequence (P08684 whole entry): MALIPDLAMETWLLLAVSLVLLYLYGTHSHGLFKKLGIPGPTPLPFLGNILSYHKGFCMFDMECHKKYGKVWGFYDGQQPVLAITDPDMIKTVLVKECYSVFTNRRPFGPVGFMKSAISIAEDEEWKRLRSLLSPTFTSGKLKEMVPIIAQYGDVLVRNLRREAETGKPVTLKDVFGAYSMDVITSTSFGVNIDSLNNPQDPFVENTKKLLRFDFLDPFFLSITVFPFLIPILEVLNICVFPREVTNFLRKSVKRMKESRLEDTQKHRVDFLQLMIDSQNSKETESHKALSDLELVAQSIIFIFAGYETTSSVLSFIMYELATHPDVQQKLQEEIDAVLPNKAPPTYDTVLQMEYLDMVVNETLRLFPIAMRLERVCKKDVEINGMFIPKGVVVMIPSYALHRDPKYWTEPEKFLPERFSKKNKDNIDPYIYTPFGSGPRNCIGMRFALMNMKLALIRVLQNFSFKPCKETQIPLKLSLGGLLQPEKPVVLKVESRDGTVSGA
readout: IC50

Use the examples below as a reference point.
Cc1nc(N2C[C@H]3C(=O)N(C)C(=N)N[C@@]3(c3ccc(Cl)s3)C2)nc(C)c1F | > 30 µM
Cc1nc(N2C[C@H]3C(=O)N(C)C(=N)N[C@@]3(c3ccc(C#N)s3)C2)nc(C)c1F | ~30 µM
CCOc1nc(N2C[C@H]3C(=O)N(C)C(=N)N[C@@]3(c3ccc(Cl)s3)C2)nc(CC)c1F | 23 µM

Could you now look at the following compound, please?
Problem: Bench note: what IC50 did `Cc1nc(N2C[C@H]3C(=O)N(C)C(=N)N[C@@]3(c3ccc(Cl)s3)C2)nc(C2CC2)c1F` show?
Solution: 12 µM

----------
biological target: hERG (Homo sapiens); construct: expressed in transfected cells; host or cells: CHO cells (hERG-CHO); assay: hERG rubidium efflux in hERG-CHO cells; assay type: cell-based; settings: CHO cells that express hERG (hERG-CHO), pH 7.4, 1.5 uG/mL, read-out: HERG Rb efflux % Inhib 1.5 uG/mL
Listed here are molecules together with their documented inhibition at 30 min, 1.5 uG/mL.
Enter your answer as a number in %; do not include the unit.

Use the examples below as a reference point.
[H]/N=C1\N[C@@]2(c3ccc(C#N)s3)CN(c3nc(C)c(F)c(OC)n3)C[C@H]2C(=O)N1C | 1
Cc1nc(N2C[C@H]3C(=O)N(C)C(=N)N[C@@]3(c3ccc(Cl)s3)C2)nc(C2CC2)c1Cl | -1
CCc1nc(N2C[C@H]3C(=O)N(C)C(=N)N[C@@]3(c3ccc(Cl)s3)C2)nc(C2CC2)c1Cl | 2
COc1nc(N2C[C@H]3C(=O)N(C)C(=N)N[C@@]3(c3ccc(Cl)s3)C2)nc(C2CC2)c1Cl | -7

Problem: Bench note: what inhibition at 30 min, 1.5 uG/mL did `Cc1nc(N2C[C@H]3C(=O)N(C)C(=N)N[C@@]3(c3ccc(Cl)s3)C2)nc(C)c1F` show?
Solution: 14

Problem: Bench note: what inhibition at 30 min, 1.5 uG/mL did `CCc1nc(N2C[C@H]3C(=O)N(C)C(=N)N[C@@]3(c3ccc(Cl)s3)C2)nc(OC)c1F` show?
Solution: 17

Problem: Bench note: what inhibition at 30 min, 1.5 uG/mL did `COc1nc(N2C[C@H]3C(=O)N(C)C(=N)N[C@@]3(c3ccc(Cl)s3)C2)nc(C2CC2)c1F` show?
Solution: 26
